Numbers sourced from patent US6787535B2.

Catalogue of melting point readings, one per entry.
Where a name gives a salt, the structure may show the parent alone.

Look over these answered cases.
[
  {
    "molecule": "O=S(=O)(c1ccncc1)c1c[nH]c2c(N3CCNCC3)cccc12",
    "observed-measurement": "207 to 208 °C"
  },
  {
    "molecule": "CN1CCN(c2cccc3c(S(=O)(=O)c4ccccc4C(F)(F)F)c[nH]c23)CC1",
    "observed-measurement": "237.1 to 241.5 °C"
  },
  {
    "molecule": "CN1CCN(c2cccc3c(S(=O)(=O)c4ccccc4)c[nH]c23)CC1 (as salt: hydrochloride)",
    "observed-measurement": "160 to 162 °C"
  },
  {
    "molecule": "O=S(=O)(c1ccccc1Cl)c1c[nH]c2c(N3CCNCC3)cccc12",
    "observed-measurement": "280 to 282 °C"
  },
  {
    "molecule": "CN1CCN(c2cccc3c(S(=O)(=O)c4ccc(Cl)c(Cl)c4)c[nH]c23)CC1",
    "observed-measurement": "196 to 203 °C"
  },
  {
    "molecule": "O=S(=O)(c1ccc(Cl)cc1)c1c[nH]c2ccc(N3CCNCC3)cc12",
    "observed-measurement": "282 to 286.4 °C"
  }
]

## Task Need melting point of O=S(=O)(c1ccc(C(F)(F)F)cc1)c1c[nH]c2ccc(N3CCNCC3)cc12 , thanks.
## Result 274.9 to 280.9 °C

## Task Same thing, different molecule: c1ccc(Sc2c[nH]c3ccc(N4CCNCC4)cc23)cc1
## Result 246 to 247 °C

## Task Same read-out for O=S(=O)(c1ccccc1C(F)(F)F)c1c[nH]c2c(N3CCNCC3)cccc12 ?
## Result 186 to 187 °C

## Task Again, but for O=S(=O)(c1ccc(F)cc1)c1c[nH]c2ccc(N3CCNCC3)cc12
## Result 289 to 291 °C

## Task Consider next the molecule O=S(=O)(c1ccccc1)c1c[nH]c2c(C3CCNCC3)cccc12 in the same way.
## Result 186 to 189.5 °C
